- Test system: Staphylococcus aureus
- test-description: Antibacterial activity against methicillin-resistant Staphylococcus aureus N315 after 24 hrs by microdilution method
- Format: functional
- conditions-used: N315, 24 h
List of MIC values.

Query :: Which MIC is reported with Staphylococcus aureus for this entry: O=C(OC[C@H]1O[C@@H](Oc2c(-c3ccc(O)c(O)c3)oc3cc(O)cc(O)c3c2=O)[C@H](OC(=O)c2ccc(F)cc2)[C@@H](O)[C@H]1O)c1ccc(F)cc1 ?
Result :: 8 µg/mL

Query :: Which MIC is reported with Staphylococcus aureus for this entry: Cc1ccc(CCC(=O)Oc2cc(O)c3c(=O)c(OC(=O)CCc4ccc(C)cc4)c(-c4ccc(O)c(O)c4)oc3c2)cc1 ?
Result :: 32 µg/mL

Query :: Which MIC is reported with Staphylococcus aureus for this entry: Cc1ccc(CCC(=O)OC[C@H]2O[C@@H](Oc3c(-c4ccc(O)c(O)c4)oc4cc(O)cc(O)c4c3=O)[C@H](O)[C@@H](O)[C@H]2O)cc1 ?
Result :: 16 µg/mL

Query :: Which MIC is reported with Staphylococcus aureus for this entry: CN[C@H](CC(C)C)C(=O)N[C@H]1C(=O)N[C@@H](CC(N)=O)C(=O)N[C@H]2C(=O)N[C@H]3C(=O)N[C@H](C(=O)N[C@H](C(=O)O)c4cc(O)cc(O)c4-c4cc3ccc4O)[C@H](O)c3ccc(c(Cl)c3)Oc3cc2cc(c3O[C@@H]2O[C@H](CO)[C@@H](O)[C@H](O)[C@H]2O[C@H]2C[C@](C)(N)[C@H](O)[C@H](C)O2)Oc2ccc(cc2Cl)[C@H]1O ?
Result :: 0.25 µg/mL

Query :: Which MIC is reported with Staphylococcus aureus for this entry: Cc1ccc(CCC(=O)OC[C@H]2O[C@@H](Oc3c(-c4ccc(O)c(O)c4)oc4cc(O)cc(O)c4c3=O)[C@H](OC(=O)CCc3ccc(C)cc3)[C@@H](O)[C@H]2O)cc1 ?
Result :: 0.25 µg/mL

Query :: Which MIC is reported with Staphylococcus aureus for this entry: O=C(CCCc1ccc(F)cc1)OC[C@H]1O[C@@H](Oc2c(-c3ccc(O)c(O)c3)oc3cc(O)cc(O)c3c2=O)[C@H](OC(=O)CCCc2ccc(F)cc2)[C@@H](O)[C@H]1O ?
Result :: 4 µg/mL

Query :: Which MIC is reported with Staphylococcus aureus for this entry: Cc1ccc(CC(=O)OC[C@H]2O[C@@H](Oc3c(-c4ccc(O)c(O)c4)oc4cc(O)cc(O)c4c3=O)[C@H](OC(=O)Cc3ccc(C)cc3)[C@@H](O)[C@H]2O)cc1 ?
Result :: 8 µg/mL

Query :: Which MIC is reported with Staphylococcus aureus for this entry: O=C(CCCCc1ccc(F)cc1)OC[C@H]1O[C@@H](Oc2c(-c3ccc(O)c(O)c3)oc3cc(O)cc(O)c3c2=O)[C@H](OC(=O)CCCCc2ccc(F)cc2)[C@@H](O)[C@H]1O ?
Result :: 2 µg/mL

Query :: Which MIC is reported with Staphylococcus aureus for this entry: O=C(CCc1ccc(F)cc1)OC[C@H]1O[C@@H](Oc2c(-c3ccc(O)c(O)c3)oc3cc(O)cc(O)c3c2=O)[C@H](OC(=O)CCc2ccc(F)cc2)[C@@H](O)[C@H]1O ?
Result :: 0.13 µg/mL

Query :: Which MIC is reported with Staphylococcus aureus for this entry: O=c1c(O)c(-c2ccc(O)c(O)c2)oc2cc(O)cc(O)c12 ?
Result :: > 128 µg/mL

Query :: Which MIC is reported with Staphylococcus aureus for this entry: O=C(CCc1ccc(F)cc1)OC[C@H]1O[C@@H](Oc2c(-c3ccc(O)c(O)c3)oc3cc(O)cc(O)c3c2=O)[C@H](O)[C@@H](O)[C@H]1O ?
Result :: 16 µg/mL

Origin of measurements: ChEMBL document CHEMBL1795235
